Each entry below carries its recorded % inhibition at 5.6 nM.
# Tested System: T1, full length human DLL4 (human, UniProt Q9NR61 27-685)
# T1 construct: whole, on cells; also called native DLL4 expressed in HEK293 cells
# T1 sequence (Q9NR61 27-685): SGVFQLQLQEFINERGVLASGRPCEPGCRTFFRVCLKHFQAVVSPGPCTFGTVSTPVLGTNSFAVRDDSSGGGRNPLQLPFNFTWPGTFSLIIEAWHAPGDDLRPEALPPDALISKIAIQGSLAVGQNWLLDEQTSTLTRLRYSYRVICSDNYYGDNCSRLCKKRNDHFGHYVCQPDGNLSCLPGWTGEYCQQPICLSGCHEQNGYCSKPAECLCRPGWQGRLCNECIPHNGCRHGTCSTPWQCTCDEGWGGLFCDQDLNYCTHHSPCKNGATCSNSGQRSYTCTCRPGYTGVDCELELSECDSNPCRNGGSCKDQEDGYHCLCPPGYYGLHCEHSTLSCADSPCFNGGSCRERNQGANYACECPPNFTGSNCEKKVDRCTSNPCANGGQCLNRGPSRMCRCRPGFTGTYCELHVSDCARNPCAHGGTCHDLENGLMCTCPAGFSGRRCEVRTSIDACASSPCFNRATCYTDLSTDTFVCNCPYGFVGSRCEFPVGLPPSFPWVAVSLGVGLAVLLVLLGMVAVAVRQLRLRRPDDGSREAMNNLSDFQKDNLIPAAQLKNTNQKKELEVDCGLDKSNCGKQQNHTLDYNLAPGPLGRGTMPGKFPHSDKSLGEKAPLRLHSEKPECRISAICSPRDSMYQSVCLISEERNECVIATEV
# Experiment Description: FMAT competition, purified antibody vs Alexa-647 human Notch1/Fc, 293T cells with human DLL4
Don't forget the unit after the value.

21H3 (antibody, IgG4, V domains shown, Fully human; used for IgG4 rows and where no isotype is printed; also called 21H3 IgG4) VH: QVQLVQSGAEVKKPGASVKVSCKASGYTFTNYGITWVRQAPGQGPEWMGWISAYNGNTNYAQKLQDRVTVTTDTSTSTAYMELRSLRSDDTAVYYCARDRVPRIPVTTEAFDIWGQGTMVTVSS VL: QSVLTQPPSASGTPGQRVTISCSGSSSNIGSYFVYWYQQLPGTAPKLLIYRNNQRPSGVPDRFSGSESGTSASLAISGLRSEDEADYYCAAWDDSLSGHWVFGGGTRLTVL has a reported % inhibition at 5.6 nM of 115%

3A7 (antibody, IgG4, V domains shown, Fully human; also used where no isotype is printed) VH: EVQVVESGGGLVQPGGSLRLSCEASGFTFSNYWMIWVRQAPGKGLEWVASIKEDGSEKYYVDSVKGRFTISRDNAKSSLYLQMNSLRAEDTAVYYCVRDWELRGHYYYHGMDVWGQGTTVTVSS VL: DIQMTQSPSSLSASVGDRVTITCRASLDIRNDLGWFLQKPGKAPKRLIYAASSLQSGVPSRFSGSGSGTEFTLTINSLQPEDFATYYCLQHRNYPFTFGPGTKVDFK has a reported % inhibition at 5.6 nM of 82%

---
1D4 (antibody, IgG4, V domains shown, Fully human XenoMouse antibody; also used where no isotype is printed) VH: QLQLQESGPGLVKPSETLSLTCTVSGGSISSSSYYWGWIRQPPGKGLEWIGSFYYSRSTYYNPSLKSRVTISVDTSKNQFSLKLSSVTAADTAVHYCARGSIAVPDAFDIWGQGTMVTVSS VL: SYELTQPPSVSVSPGQTASITCSGDKLGDKFACWYQQKPGHSPVLVVYQDNKRPSGIPERFSGSNSGNSATLTISGTQAMDEADYYCQAWDSNTAVFGGGTKLTVL has a reported % inhibition at 5.6 nM of 124%
